Fibroblast growth factor receptor 2 (Homo sapiens) IC50, compiled from various sources.

[
  {
    "MOLECULE": "N#Cc1cnc(NC(=O)N2CCCc3ccc(C=O)nc32)cn1",
    "IC50": "> 10 µM"
  },
  {
    "MOLECULE": "COCCN1Cc2cc(-c3n[nH]c4cc(-c5c(F)c(OC)cc(OC)c5F)ncc34)ccc2C1=O",
    "IC50": "< 0.1 µM"
  },
  {
    "MOLECULE": "C=CC(=O)NCc1cc2c(cn1)CN(c1c(F)c(OC)cc(OC)c1F)C(=O)N2C(C)C",
    "IC50": "> 0.2 µM"
  },
  {
    "MOLECULE": "COc1cc(OC)c(F)c(-c2cc3[nH]nc(-c4ccc5c(c4)CCC(C(=O)N(C)C)O5)c3cn2)c1F (centres unmarked)",
    "IC50": "< 0.1 µM"
  },
  {
    "MOLECULE": "COCCNc1cc(NC(=O)N2CCCc3cc(N4CCC(C)C4=O)c(C=O)nc32)ncc1C#N (racemic)",
    "IC50": "> 10 µM"
  },
  {
    "MOLECULE": "COc1cc(OC)c(F)c(N2Cc3cnc(NCCN4CCN(C)CC4)cc3C3(CC3)C2=O)c1F",
    "IC50": "< 0.1 µM"
  },
  {
    "MOLECULE": "COc1cc(OC)c(F)c(N2Cc3cnc(N)c(-c4cccnc4)c3N(C)C2=O)c1F",
    "IC50": "< 0.1 µM"
  },
  {
    "MOLECULE": "COc1cc(OC)c(F)c(-c2ncc3c(-c4ccc5c(c4)CN(C(C)C)C5=O)n[nH]c3n2)c1F",
    "IC50": "< 0.1 µM"
  }
]

---

pIC50: −log10 of the molar value.
Fibroblast growth factor receptor 2 (Homo sapiens) pIC50, compiled from various sources.

[
  {
    "ITEM_SMILES": "COc1cc(OC)c(Cl)c(-c2cc3[nH]nc(-c4ccc5c(c4)NC(=O)CO5)c3cn2)c1Cl",
    "pIC50": "> 7.00"
  },
  {
    "ITEM_SMILES": "COCCNc1cc(NC(=O)N(C)c2ccc(CN3CCCC3=O)c(C=O)n2)ncc1C#N",
    "pIC50": "< 5.00"
  },
  {
    "ITEM_SMILES": "COc1cc(OC)c(Cl)c(-c2cc3[nH]nc(/C=C/c4cnn(CCO)c4)c3cn2)c1Cl",
    "pIC50": "> 7.00"
  },
  {
    "ITEM_SMILES": "CC(C)(C)c1cc(NC(=O)Nc2ccc(Oc3ncnc4[nH]ncc34)c(F)c2)no1",
    "pIC50": "> 5.00"
  },
  {
    "ITEM_SMILES": "C=CC(=O)NCc1cc2c(cn1)CN(c1c(F)c(OC)cc(OC)c1F)C(=O)N2C[C@@H]1CCOC1",
    "pIC50": "< 6.70"
  },
  {
    "ITEM_SMILES": "COC(=O)Nc1cc2c(cn1)CN(c1c(F)c(OC)cc(OC)c1F)C(=O)C21CC1",
    "pIC50": "> 7.00"
  },
  {
    "ITEM_SMILES": "COc1cc(OC)c(F)c(-c2ncc3c(-c4ccc5c(c4)CN([C@H]4CC[C@H](O)CC4)C5=O)n[nH]c3n2)c1F",
    "pIC50": "> 7.00"
  },
  {
    "ITEM_SMILES": "CCN1CCN(c2ccc(Nc3ncc(C)c(Nc4ccc5cn[nH]c5c4)n3)cc2OC)CC1",
    "pIC50": 7.57
  }
]
